System: PSA levels secreted into the media
Assay: Prostate-specific antigen (PSA) assay
Type: cell-based
Conditions: Homo sapiens, 72 h; in parallel to the eGFP assay, same plates, 3 days
Exercise: for every item that follows, state its recorded pIC50.
# pIC50: negative log10 of molar concentration; output just the value

// lookup pIC50 for Brc1cn(-c2csc(N3[C@@H]4CCC[C@H]3COC4)n2)c(Br)n1 [Example 2]
7.13

// lookup pIC50 for CC1(C)CN(c2nc(-n3cc(Br)nc3Br)cs2)CCO1 [Example 1]
7.02

// lookup pIC50 for Clc1ncn(-c2csc(N3[C@@H]4CC[C@H]3COC4)n2)c1Br [Example 6]
6.42

// lookup pIC50 for Clc1ncn(-c2csc(N3[C@@H]4CCC[C@H]3COC4)n2)c1Br [Example 5]
6.74

// lookup pIC50 for Brc1ncn(-c2csc(N3[C@@H]4CCC[C@H]3COC4)n2)c1Br [Example 4]
8.22

* * *

Biological target: AR transcriptional activity (Homo sapiens, UniProt P10275, T878A)
Construct: The LNCaP eGFP cell line was stably transfected with an androgen-responsive probasin-derived promoter fused to an eGFP reporter; endogenous in cells
Sequence (P10275 whole entry T878A, the tested form may be a part): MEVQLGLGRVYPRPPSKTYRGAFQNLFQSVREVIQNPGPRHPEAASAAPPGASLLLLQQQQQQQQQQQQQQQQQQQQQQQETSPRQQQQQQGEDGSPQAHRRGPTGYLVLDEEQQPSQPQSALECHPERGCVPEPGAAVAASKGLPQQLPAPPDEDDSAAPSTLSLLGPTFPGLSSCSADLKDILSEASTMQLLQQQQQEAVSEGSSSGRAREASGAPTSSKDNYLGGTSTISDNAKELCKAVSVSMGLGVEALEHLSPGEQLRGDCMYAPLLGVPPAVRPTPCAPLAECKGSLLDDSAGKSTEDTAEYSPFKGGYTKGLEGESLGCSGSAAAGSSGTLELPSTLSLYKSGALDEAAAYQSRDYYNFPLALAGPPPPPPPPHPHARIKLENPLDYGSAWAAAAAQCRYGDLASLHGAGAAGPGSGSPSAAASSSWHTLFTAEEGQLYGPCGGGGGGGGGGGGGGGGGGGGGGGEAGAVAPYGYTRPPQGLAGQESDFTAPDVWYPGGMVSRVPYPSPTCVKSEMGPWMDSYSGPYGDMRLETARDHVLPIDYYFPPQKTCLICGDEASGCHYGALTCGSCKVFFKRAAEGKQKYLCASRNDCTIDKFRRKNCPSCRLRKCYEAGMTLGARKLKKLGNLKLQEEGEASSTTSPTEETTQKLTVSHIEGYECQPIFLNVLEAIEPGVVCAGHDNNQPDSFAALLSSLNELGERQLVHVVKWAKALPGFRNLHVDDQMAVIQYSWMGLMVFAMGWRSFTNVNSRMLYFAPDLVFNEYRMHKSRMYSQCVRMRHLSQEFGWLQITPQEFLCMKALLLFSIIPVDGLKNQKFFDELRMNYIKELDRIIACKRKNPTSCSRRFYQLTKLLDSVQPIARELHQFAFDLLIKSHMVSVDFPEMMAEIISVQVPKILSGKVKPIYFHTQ
Test: eGFP cellular AR transcription assay
Details: LNCaP eGFP cell line
Exercise: for every item that follows, state its recorded pIC50.
# pIC50: negative log10 of molar concentration; output just the value

Short answer please: pIC50, AR transcriptional activity (Homo sapiens, UniProt P10275, T878A), entry Brc1ncn(-c2csc(N3C[C@@H]4C[C@H]3CO4)n2)c1Br [Example 12]
5.88

Short answer please: pIC50, AR transcriptional activity (Homo sapiens, UniProt P10275, T878A), entry Brc1cn(-c2csc(N3CCOC4(CCCC4)C3)n2)c(Br)n1 [Example 18]
6.70

Short answer please: pIC50, AR transcriptional activity (Homo sapiens, UniProt P10275, T878A), entry Brc1ncn(-c2csc(N3CCOC4(COC4)C3)n2)c1Br [Example 65]
5.35

Short answer please: pIC50, AR transcriptional activity (Homo sapiens, UniProt P10275, T878A), entry Brc1cn(-c2csc(N3CCOC4CCCC43)n2)c(Br)n1 (stereo not drawn) [Example 26]
5.82

Short answer please: pIC50, AR transcriptional activity (Homo sapiens, UniProt P10275, T878A), entry Clc1ncn(-c2csc(N3[C@@H]4CCC[C@H]3COC4)n2)c1Br [Example 5]
6.57

Short answer please: pIC50, AR transcriptional activity (Homo sapiens, UniProt P10275, T878A), entry CCC1COCCN1c1nc(-n2cc(Br)nc2Br)cs1 (stereo not drawn) [Example 15]
6.89

Short answer please: pIC50, AR transcriptional activity (Homo sapiens, UniProt P10275, T878A), entry Cc1nc(Br)cn1-c1csc(N2CCOCC2)n1 [Example 42]
6.12

Short answer please: pIC50, AR transcriptional activity (Homo sapiens, UniProt P10275, T878A), entry Clc1c(Br)ncn1-c1csc(N2C[C@H]3CC[C@@H](C2)O3)n1 [Example 24]
6.15

Short answer please: pIC50, AR transcriptional activity (Homo sapiens, UniProt P10275, T878A), entry Clc1cn(-c2csc(N3CCOCC3)n2)cn1 [Example 47]
6.01

* * *

Exercise: for every item that follows, state its recorded microsomal CLint at 2 μM.
Experiment: in vitro
Conditions: human, microsomes, pH 7.4
Response body: numeric value in µL/min/mg, unit text excluded.

// lookup microsomal CLint at 2 μM for Clc1ncn(-c2csc(N3[C@@H]4CC[C@H]3COC4)n2)c1Cl
42

// lookup microsomal CLint at 2 μM for FC(F)(F)C1CN(c2nc(-n3cc(Br)nc3Br)cs2)CCO1 (stereo not drawn)
44

// lookup microsomal CLint at 2 μM for Cc1nc(Br)cn1-c1csc(N2CCOCC2)n1
72

// lookup microsomal CLint at 2 μM for OCc1c(Br)ncn1-c1csc(N2CCOCC2)n1
15

// lookup microsomal CLint at 2 μM for Clc1ncn(-c2csc(N3C[C@H]4CC[C@@H](C3)O4)n2)c1Br
6

// lookup microsomal CLint at 2 μM for CSc1nc(Br)cn1-c1csc(N2CCOCC2)n1
198

// lookup microsomal CLint at 2 μM for OCc1ncn(-c2csc(N3CCOCC3)n2)c1Br
19

// lookup microsomal CLint at 2 μM for Cc1c(Br)ncn1-c1csc(N2CCOCC2)n1
72

// lookup microsomal CLint at 2 μM for OCc1nc(Br)c(Br)n1-c1csc(N2[C@@H]3CC[C@H]2COC3)n1
10

// lookup microsomal CLint at 2 μM for N#Cc1cn(-c2csc(N3CCOCC3)n2)cn1
23

// lookup microsomal CLint at 2 μM for Clc1ncn(-c2csc(N3C[C@H]4CC[C@@H](C3)O4)n2)c1Cl
40

// lookup microsomal CLint at 2 μM for c1cn(-c2csc(N3CCOCC3)n2)cn1
10

// lookup microsomal CLint at 2 μM for Clc1c(Br)ncn1-c1csc(N2CCOCC2)n1
185

// lookup microsomal CLint at 2 μM for Cc1nc(-c2ccccc2)cn1-c1csc(N2CCOCC2)n1
44

// lookup microsomal CLint at 2 μM for Cc1ncn(-c2csc(N3CCOCC3)n2)c1Br
224

// lookup microsomal CLint at 2 μM for Brc1cn(-c2csc(N3CCOC4(CCCC4)C3)n2)c(Br)n1
100

// lookup microsomal CLint at 2 μM for Brc1ncn(-c2csc(N3CCOCC3)n2)c1Br
165

// lookup microsomal CLint at 2 μM for CCC1COCCN1c1nc(-n2cc(Br)nc2Br)cs1 (stereo not drawn)
51

// lookup microsomal CLint at 2 μM for Brc1cn(-c2csc(N3CCOCC3)n2)cn1
81

// lookup microsomal CLint at 2 μM for OCc1nc(Br)c(Br)n1-c1csc(N2CCOCC2)n1
10

// lookup microsomal CLint at 2 μM for COc1nc(Br)cn1-c1csc(N2[C@@H]3CC[C@H]2COC3)n1
22

// lookup microsomal CLint at 2 μM for CCOC(=O)c1nc(Br)c(Br)n1-c1csc(N2CCOCC2)n1
33

// lookup microsomal CLint at 2 μM for CC1CN(c2nc(-n3cc(Br)nc3Br)cs2)CCO1 (stereo not drawn)
52

// lookup microsomal CLint at 2 μM for Clc1ncn(-c2csc(N3CCOCC3)n2)c1Br
196

// lookup microsomal CLint at 2 μM for Brc1nccn1-c1csc(N2CCOCC2)n1
42

// lookup microsomal CLint at 2 μM for Clc1c(Br)ncn1-c1csc(N2C[C@H]3CC[C@@H](C2)O3)n1
13

// lookup microsomal CLint at 2 μM for CCC1(CC)CN(c2nc(-n3cc(Br)nc3Br)cs2)CCO1
129

// lookup microsomal CLint at 2 μM for CC1CN(c2nc(-n3cc(Br)nc3Br)cs2)C(C)CO1 (stereo not drawn)
41

// lookup microsomal CLint at 2 μM for Brc1cn(-c2csc(N3CCOCC3)n2)c(Br)n1
177

// lookup microsomal CLint at 2 μM for Brc1cn(-c2csc(N3CCOC4(COC4)C3)n2)c(Br)n1
18
